# credit: patent US20060281071A1

target: hSCD5 (Homo sapiens, UniProt Q86SK9)
Sequence (Q86SK9 whole entry): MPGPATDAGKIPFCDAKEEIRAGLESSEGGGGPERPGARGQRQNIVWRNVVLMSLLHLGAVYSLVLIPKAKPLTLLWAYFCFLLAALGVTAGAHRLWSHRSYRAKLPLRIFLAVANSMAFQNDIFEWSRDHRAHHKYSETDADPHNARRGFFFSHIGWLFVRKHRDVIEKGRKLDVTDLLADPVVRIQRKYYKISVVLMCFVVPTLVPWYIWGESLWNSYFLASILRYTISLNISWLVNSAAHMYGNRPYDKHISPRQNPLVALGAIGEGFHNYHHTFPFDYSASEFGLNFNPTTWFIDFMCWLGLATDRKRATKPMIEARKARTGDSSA
assay_notes: Conversion of saturated fatty acids to Δ9 monounsaturated fatty acids in ole1 yeast L8-14C expressing hSCD5 (GLC)
Format: cell-based
Design: Cloning of the full-length human and mouse SCD cDNAs: The full coding region of human SCDs; expressed in transfected cells; host or cells: Saccharomyces cerevisiae L8-14C (ole1 disruptant), vector p426GPD
condition_context: exogenous fatty acid 0.2 mM, 1% tergitol NP-40, yeast cultured 2 days (FIG. 2)
Description: […] Fatty acid analysis: Yeast cells were grown in liquid YPD medium lacking unsaturated fatty acids for 3 days. […] The resulting fatty acid methyl esters were extracted with hexane and analyzed by gas-liquid chromatography (GLC) (Miyazaki, M. et al. (2001) J Biol Chem 276, 39455-39461; and Elble, R. (1992) Biotechniques 13, 18-20). […]
property_measured: conversion of exogenous saturated fatty acid to Δ9 monounsaturated fatty acid

INSERT INTO results (structure_smiles_string, observed_result) VALUES
  ('CCCCCCCCCCCCCCCCC(=O)O', '31%');
